Parameter measured: melting point

input_smiles=O=c1c(-c2n[nH]c3ccccc23)coc2ccccc12 parameter_measured="melting point" result="159 to 160 °C"
input_smiles=CCCCC(=O)Nc1cc(C(=O)N2CCOCC2)ccn1 parameter_measured="melting point" result="110 to 112 °C"
input_smiles=C=C(Cl)Cc1c(Cl)nc(NC=O)nc1Cl parameter_measured="melting point" result="113 to 115 °C"
input_smiles=CON(C)C(=O)Nc1ccc(OCc2ccc(C(C)C)cc2)cc1 parameter_measured="melting point" result="87.5 to 88 °C"
input_smiles=COc1ccc(S(=O)(=O)Nc2ccccc2C=Cc2cccnc2)cc1 parameter_measured="melting point" result="131 to 132 °C"
input_smiles=O=C(O)c1oc(-c2ccccc2)cc(=O)c1Cl parameter_measured="melting point" result="250 °C"
input_smiles=O=C1COCc2cc(Br)ccc21 parameter_measured="melting point" result="144 to 146 °C"

Now examine the next entry.
Q) Reported melting point, molecule "O=C1NC(=O)C(c2cn(CCCO)c3ccccc23)=C1c1ccccc1[N+](=O)[O-]" : ____
A) 193 to 195 °C

* * *

A collection of compounds and their measured melting point

Worked set:
compound="CCOC(=O)c1c2n(c3c(Cl)c(N4CCC(N(C)C)C4)c(F)cc3c1=O)C(C)S2 (stereo unspecified)" result="131 to 133 °C"
compound=ClC1=Nc2cc(Cl)ccc2Cn2cccc21 result="129 to 135 °C"
compound=CCC(C#N)(C#N)Cc1ccc(Cl)cc1 result="70.9 °C"
compound=O=C1OCCN1CCC1=NCCN1 result="118 to 123 °C"
compound=COCc1cnc2c(NC(=O)c3c(Cl)cccc3Cl)cccc2c1-n1ccnc1 result="145 to 150 °C"
compound=CCn1c(=O)n(Cc2ccccc2)c(=O)c2cc(C(=O)OCc3ccccc3)sc21 result="147 to 148 °C"
compound=Cc1nc(NCCN2CCOCC2)c2nc(-c3ccccc3)cc-2[nH]1 result="> 280 °C"
compound="CCOC(=O)C1=C(C)NC(=O)N(C(N)=O)C1c1cccc([N+](=O)[O-])c1 (stereo unspecified)" result="213 to 215 °C"

Q) Reported melting point, compound "O=C(O)CSc1nc(Cl)cc(Cl)n1" : ____
A) 120 to 122 °C

Q) Reported melting point, compound "C=C[C@]1(C)C(=O)N(C)[C@H](C(C)(C)C)N1C(=O)c1ccccc1" : ____
A) 117 to 118 °C

Q) Reported melting point, compound "COC(=O)c1nc(-c2ccc(Cl)cc2F)cc(N)c1OC" : ____
A) 139 to 144 °C

Q) Reported melting point, compound "Cc1nc2cc(NC(=O)c3cc4cccnc4n3Cc3ccncc3)ccc2s1" : ____
A) 211 to 236 °C

Q) Reported melting point, compound "CNC(=O)c1ccc(N2CCN(Cc3cnc4c(c3)[nH]c(=O)n3cccc43)CC2)cc1" : ____
A) 286 to 289 °C

* * *

Parameter measured: melting point

Worked set:
compound="Cc1ccc(OC(Cc2ccc(OCCNC(=O)c3ccc(-c4ccccn4)cc3)cc2)C(=O)O)cc1 (stereo not given)" result="129 to 131 °C"
compound="CC(=O)OC(CCCCl)C(=O)OCc1ccccc1 (stereo not given)" result="40 to 41 °C"
compound=O=[N+]([O-])c1cc2c(c([N+](=O)[O-])c1)NCC2 result="244 to 245 °C"
compound=CCCN(CO)c1nc(NCc2ccccc2)c2nc(Cl)n(C(C)C)c2n1 result="220 to 223 °C"
compound=Cc1c(OCc2ccccc2)ccc2c(=O)cc(N3CCN(c4ccccn4)CC3)oc12 result="148 to 149 °C"

Q) Reported melting point, compound "CC(C)(C)OC(=O)N1CCc2c(n(CCO)c3c(Cl)cc(Cl)cc23)CC1" : ____
A) 183 to 184 °C

Q) Reported melting point, compound "Cc1c(N2CCN(Cc3ccccc3)C(C)(C)C2)c(F)cc2c(=O)c(C(=O)O)cn(C3CC3)c12" : ____
A) 170 to 171 °C

Q) Reported melting point, compound COCn1c(-c2nc3c(OC)ccc(N4CCOCC4)c3s2)nc2ccc(C3CCNC3)nc21 (stereo not given) : ____
A) 120 to 130 °C

Q) Reported melting point, compound CCC(O)(c1ccc(OCCCc2ccccc2)cc1)c1ccccc1OC (stereo not given) : ____
A) 75 to 76 °C

Q) Reported melting point, compound "Nc1nc(Cl)nc2c1ncn2C1CCCCC1" : ____
A) 206 to 209 °C

Q) Reported melting point, compound "COCc1nnc(SCC(=O)C23CC4CC(CC(C4)C2)C3)n1C" : ____
A) 109 to 111 °C

Q) Reported melting point, compound c1ccc2c(c1)CSc1ccccc1C2n1ccnc1 (stereo not given) : ____
A) 162 to 164 °C

Q) Reported melting point, compound "Cc1cc2ncc(Nc3ccc(Br)cc3)nc2cc1C" : ____
A) 235 °C

Q) Reported melting point, compound O=c1ccn([C@H]2C=C[C@@H](O)C2)c(=O)[nH]1 (racemic) : ____
A) 163 to 164 °C

Q) Reported melting point, compound CC(O)c1cc(Br)ccc1OCc1ccccc1 (stereo not given) : ____
A) 76.7 °C

* * *

A collection of compounds and their measured melting point

input_smiles=COc1ccc(C(=O)Nc2cc(C)cc(C)c2)cc1N parameter_measured="melting point" result="155 to 162 °C"

Q) Reported melting point, compound "CC1(CCc2ccccc2)OC(=O)CC(=O)O1" : ____
A) 63 to 65 °C

Q) Reported melting point, compound "N#Cc1ccc(-c2ccc(OCCCC(=O)NO)cc2)cc1" : ____
A) 170 to 172 °C

* * *

Parameter measured: melting point

Worked set:
compound="O=C(Nc1ccc(Cl)cc1)NC(c1ccccc1)C(O)c1ccccc1 (stereo unspecified)" result="198 °C"
compound=CC(=O)Nc1ccc(CNc2n[nH]c(N=CN(C)C)c2C#N)cc1 result="206 to 211 °C"
compound=OCc1cc2cnc(Cl)nc2n1C1CCCC1 result="174 to 176 °C"
compound=CC(C)=CCS(=O)(=O)c1ccc(C)cc1 result="71 to 72 °C"
compound=CCCCCCOC(=O)CS(=O)(=O)Nc1c(C(C)C)cccc1C(C)C result="66 to 68 °C"

Q) Reported melting point, compound "CCOc1cc(-c2cc(C(F)(F)F)n3ncc(C(=O)Nc4nc(C)c(S(=O)(=O)NC(C)(C)CO)s4)c3n2)ccc1C(F)(F)F" : ____
A) 276 °C

Q) Reported melting point, compound N#Cc1ccc(CN2C(=O)C3(COc4cc5c(cc43)OCCO5)c3ccccc32)cc1 (stereo unspecified) : ____
A) 69 to 72 °C

Q) Reported melting point, compound "CC(C)c1nn(-c2ccc(C(F)(F)F)cc2)cc1COc1cccc(CC(=O)O)c1" : ____
A) 92 to 93 °C

* * *

Parameter measured: melting point

compound=COc1ccc(-c2nn(C3CCC3)c3c(C(F)(F)F)cccc23)c(OC)c1 parameter_measured="melting point" result="109 to 110 °C"
compound="CC(c1ccc(-c2ccccc2Cl)cc1)S(=O)CC(=O)O (centres undefined)" parameter_measured="melting point" result="144 to 147 °C"
compound="O=C1N(Cc2ccc(C(F)(F)F)o2)c2ccc(F)cc2C12COc1cc3c(cc12)OCO3 (centres undefined)" parameter_measured="melting point" result="139 to 141 °C"

Now examine the next entry.
Q) Reported melting point, compound COC(=O)C1C=CCN2C(=O)C(CCI)(Cc3ccccc3)C(=O)N12 (centres undefined) : ____
A) 90 to 92 °C

* * *

Parameter measured: melting point (°C)

Worked set:
input_smiles=CCc1nnc(-c2ccc(OC)cc2)n1-c1ccccc1 parameter_measured="melting point" readout_number=118
input_smiles=C=CCc1cc(CC(=O)O)ccc1OCc1ccc2ccccc2n1 parameter_measured="melting point" readout_number=130
input_smiles=CS(=O)(=O)c1cccc(NC(=O)c2cnn3c(C(F)(F)F)cc(-c4ccc(C(F)(F)F)c(OCC(F)(F)F)c4)nc23)c1 parameter_measured="melting point" readout_number=227

P: CCOC(=O)c1cc(=O)c2ccc(NCc3ccccc3)c([N+](=O)[O-])c2o1
Q: CC(C)c1nn(C(=O)NC2CCCC2)c(=O)n1N
Q) Problem: Given the entries P and Q , determine which has the lower reported melting point. Give the chosen item's label as your response.
A) Q

* * *

Parameter measured: melting point

Q) Reported melting point, molecule CCOC(=O)C1=C(COCc2nnn(CCNS(C)(=O)=O)n2)NC(C)=C(C(=O)OC)C1c1cccc(Cl)c1Cl (stereo not drawn) : ____
A) 245 to 247 °C

Q) Reported melting point, molecule "CCCc1cc2c(c3ccc(OC)cc13)OCc1cc(OC)ccc1-2" : ____
A) 88 to 90 °C

Q) Reported melting point, molecule Cn1cncc1C(O)(c1ccc(Cl)cc1)c1ccc2nc(C=O)cc(-c3cccc(Cl)c3)c2c1 (stereo not drawn) : ____
A) 205 °C

Q) Reported melting point, molecule "Nc1cc2c(Nc3ccc(Cl)c(Cl)c3)ncnc2cn1" : ____
A) 277 to 280 °C
